SYSTEM TESTED: Cytochrome P450 1A2 (Homo sapiens, UniProt P05177);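 note: PubChem cytochrome P450 panel assay, CYP1A2 panel member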
Sequence (P05177 whole entry): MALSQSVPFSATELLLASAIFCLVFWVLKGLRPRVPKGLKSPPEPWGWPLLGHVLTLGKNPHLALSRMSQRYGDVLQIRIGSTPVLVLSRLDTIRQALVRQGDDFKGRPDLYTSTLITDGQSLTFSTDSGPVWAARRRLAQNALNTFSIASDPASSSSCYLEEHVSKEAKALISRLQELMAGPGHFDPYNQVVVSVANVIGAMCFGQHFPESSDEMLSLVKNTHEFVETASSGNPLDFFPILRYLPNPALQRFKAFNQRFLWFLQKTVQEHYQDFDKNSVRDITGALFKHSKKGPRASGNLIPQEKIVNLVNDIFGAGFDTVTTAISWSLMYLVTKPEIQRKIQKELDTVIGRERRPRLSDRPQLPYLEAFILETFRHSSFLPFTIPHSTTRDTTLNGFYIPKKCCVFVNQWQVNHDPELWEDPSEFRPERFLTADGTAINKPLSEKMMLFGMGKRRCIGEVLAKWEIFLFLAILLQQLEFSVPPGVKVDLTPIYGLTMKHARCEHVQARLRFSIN
PROPERTY NAME: AC50

INSERT INTO results (compound, property_name, val) VALUES
  ('N=C(C[C@@H](O)COc1ccccc1-c1ccccc1)N1CCCCC1', 'AC50', '39.8 µM (inconclusive)'),
  ('Cn1c2c(c(=O)n(C)c1=O)C1(C(=O)Nc3ccccc31)C(C#N)=C(N)O2 (stereo not given)', 'AC50', '25.1 µM (inconclusive)'),
  ('Clc1ccccc1-c1nc(NC2CCNCC2)c2ccccc2n1', 'AC50', '20 µM (inconclusive)'),
  ('Cc1cccc(NC(=O)C2CCN(S(=O)(=O)c3cccc4nsnc34)CC2)n1', 'AC50', '0.0794 µM (inconclusive)'),
  ('Cc1nnc(C)n1/N=C/c1cccs1', 'AC50', '17.8 µM (inconclusive)');

Cytochrome P450 1A2 (Homo sapiens, UniProt P05177) AC50 of `O[C@@H]1[C@@H]2c3cc4c(cc3CN3CCC(=C[C@@H]1O)[C@H]23)OCO4` is 15.8 µM (inconclusive)

Cited source: ChEMBL document CHEMBL1201862
